Attribution: patent US20210186970A1

systemName: Cav1.3 L-type Ca channels (Rattus norvegicus)
Construct: expressed in transfected cells; host or cells: HEK293
Sequence (P27732 whole entry): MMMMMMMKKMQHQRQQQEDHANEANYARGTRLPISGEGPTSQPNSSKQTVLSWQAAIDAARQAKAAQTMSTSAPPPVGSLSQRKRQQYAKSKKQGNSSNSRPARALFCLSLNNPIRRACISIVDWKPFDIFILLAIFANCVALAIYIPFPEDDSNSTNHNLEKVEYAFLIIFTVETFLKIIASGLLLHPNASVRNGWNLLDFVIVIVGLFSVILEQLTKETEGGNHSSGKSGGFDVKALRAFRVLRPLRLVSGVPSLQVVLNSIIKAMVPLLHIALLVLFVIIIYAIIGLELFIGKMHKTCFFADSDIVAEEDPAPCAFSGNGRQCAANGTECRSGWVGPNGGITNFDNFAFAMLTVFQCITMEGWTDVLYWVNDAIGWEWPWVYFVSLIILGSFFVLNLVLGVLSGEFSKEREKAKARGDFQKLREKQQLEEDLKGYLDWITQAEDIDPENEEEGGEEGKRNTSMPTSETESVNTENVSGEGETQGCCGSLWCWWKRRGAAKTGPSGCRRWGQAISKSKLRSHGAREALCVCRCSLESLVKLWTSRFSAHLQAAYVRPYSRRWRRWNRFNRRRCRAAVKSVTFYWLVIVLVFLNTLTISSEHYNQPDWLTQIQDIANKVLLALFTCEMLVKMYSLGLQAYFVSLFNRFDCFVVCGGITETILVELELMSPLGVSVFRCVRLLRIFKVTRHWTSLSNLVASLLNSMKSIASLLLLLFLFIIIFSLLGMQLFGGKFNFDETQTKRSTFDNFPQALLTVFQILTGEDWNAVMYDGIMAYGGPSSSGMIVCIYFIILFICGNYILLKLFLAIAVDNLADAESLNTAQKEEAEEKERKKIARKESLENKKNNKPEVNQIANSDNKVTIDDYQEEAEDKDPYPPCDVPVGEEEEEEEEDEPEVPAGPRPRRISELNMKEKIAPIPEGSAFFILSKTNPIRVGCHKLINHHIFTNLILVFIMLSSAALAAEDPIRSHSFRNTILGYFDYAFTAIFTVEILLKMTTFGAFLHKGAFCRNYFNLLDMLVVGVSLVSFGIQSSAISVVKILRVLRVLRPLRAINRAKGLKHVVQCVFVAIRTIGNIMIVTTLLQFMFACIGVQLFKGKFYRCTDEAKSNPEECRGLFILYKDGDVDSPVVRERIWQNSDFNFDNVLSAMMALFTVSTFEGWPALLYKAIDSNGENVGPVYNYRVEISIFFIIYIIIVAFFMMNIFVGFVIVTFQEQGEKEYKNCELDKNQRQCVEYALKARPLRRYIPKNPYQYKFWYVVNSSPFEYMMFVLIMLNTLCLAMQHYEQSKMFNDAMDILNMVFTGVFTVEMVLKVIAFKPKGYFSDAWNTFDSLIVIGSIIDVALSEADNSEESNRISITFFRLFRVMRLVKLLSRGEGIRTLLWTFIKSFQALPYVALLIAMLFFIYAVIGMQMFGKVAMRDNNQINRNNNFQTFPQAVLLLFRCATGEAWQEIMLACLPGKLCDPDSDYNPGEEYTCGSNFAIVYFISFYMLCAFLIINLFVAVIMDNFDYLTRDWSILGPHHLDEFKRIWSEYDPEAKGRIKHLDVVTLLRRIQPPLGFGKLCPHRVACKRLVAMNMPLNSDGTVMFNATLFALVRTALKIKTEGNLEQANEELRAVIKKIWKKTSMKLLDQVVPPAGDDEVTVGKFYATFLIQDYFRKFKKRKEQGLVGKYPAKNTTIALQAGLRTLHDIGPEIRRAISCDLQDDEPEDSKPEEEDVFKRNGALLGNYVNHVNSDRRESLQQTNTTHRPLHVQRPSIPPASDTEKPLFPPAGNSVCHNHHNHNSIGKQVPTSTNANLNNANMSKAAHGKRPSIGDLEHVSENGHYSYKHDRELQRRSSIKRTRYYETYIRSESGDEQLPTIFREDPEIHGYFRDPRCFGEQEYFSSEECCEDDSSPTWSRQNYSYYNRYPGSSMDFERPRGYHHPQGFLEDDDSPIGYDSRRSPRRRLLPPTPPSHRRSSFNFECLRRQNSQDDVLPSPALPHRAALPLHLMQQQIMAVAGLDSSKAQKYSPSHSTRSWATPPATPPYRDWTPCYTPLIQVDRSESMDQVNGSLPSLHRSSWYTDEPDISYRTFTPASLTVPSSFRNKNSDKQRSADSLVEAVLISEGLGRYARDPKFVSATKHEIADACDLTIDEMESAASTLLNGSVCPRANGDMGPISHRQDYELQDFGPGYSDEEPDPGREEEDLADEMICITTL
Sequence (P54284 whole entry partner): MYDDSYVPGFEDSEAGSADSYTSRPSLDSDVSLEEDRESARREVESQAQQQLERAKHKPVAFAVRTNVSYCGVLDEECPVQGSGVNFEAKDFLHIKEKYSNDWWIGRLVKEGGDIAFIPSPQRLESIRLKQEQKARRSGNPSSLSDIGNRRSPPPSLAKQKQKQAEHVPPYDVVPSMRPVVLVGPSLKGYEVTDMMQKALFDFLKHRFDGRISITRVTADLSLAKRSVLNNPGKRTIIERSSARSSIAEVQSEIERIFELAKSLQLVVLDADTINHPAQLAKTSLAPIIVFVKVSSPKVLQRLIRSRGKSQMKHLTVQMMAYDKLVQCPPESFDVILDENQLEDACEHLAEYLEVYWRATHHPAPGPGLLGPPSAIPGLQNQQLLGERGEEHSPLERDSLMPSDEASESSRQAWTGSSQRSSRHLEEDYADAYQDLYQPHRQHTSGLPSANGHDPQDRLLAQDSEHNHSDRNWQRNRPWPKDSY
Sequence (P54289 25-956 partner limits assumed): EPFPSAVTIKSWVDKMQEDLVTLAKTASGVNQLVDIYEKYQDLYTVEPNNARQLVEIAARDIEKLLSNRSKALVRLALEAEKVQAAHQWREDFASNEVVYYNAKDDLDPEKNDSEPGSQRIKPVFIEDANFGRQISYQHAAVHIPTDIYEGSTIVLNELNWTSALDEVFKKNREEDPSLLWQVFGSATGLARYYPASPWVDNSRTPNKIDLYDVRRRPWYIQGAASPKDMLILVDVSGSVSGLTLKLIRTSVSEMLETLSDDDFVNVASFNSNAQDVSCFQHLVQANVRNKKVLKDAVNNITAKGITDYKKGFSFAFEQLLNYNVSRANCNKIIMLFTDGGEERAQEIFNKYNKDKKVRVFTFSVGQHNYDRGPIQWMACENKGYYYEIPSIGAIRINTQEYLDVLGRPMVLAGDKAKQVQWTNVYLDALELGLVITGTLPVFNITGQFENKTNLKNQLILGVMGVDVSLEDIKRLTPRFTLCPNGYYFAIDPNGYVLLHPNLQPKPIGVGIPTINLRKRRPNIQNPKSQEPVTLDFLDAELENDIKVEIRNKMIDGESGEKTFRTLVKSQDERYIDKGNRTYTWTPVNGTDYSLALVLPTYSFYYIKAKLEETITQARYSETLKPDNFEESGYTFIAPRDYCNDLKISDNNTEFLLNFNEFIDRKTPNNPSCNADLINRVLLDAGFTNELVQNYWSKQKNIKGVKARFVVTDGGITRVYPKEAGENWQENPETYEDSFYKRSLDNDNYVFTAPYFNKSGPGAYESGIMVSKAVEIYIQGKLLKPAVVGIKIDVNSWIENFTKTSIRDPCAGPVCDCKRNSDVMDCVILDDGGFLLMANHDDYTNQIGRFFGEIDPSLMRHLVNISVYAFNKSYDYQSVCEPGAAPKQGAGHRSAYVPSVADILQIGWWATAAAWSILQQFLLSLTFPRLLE
Sequence (P54289 957-1103 partner limits assumed): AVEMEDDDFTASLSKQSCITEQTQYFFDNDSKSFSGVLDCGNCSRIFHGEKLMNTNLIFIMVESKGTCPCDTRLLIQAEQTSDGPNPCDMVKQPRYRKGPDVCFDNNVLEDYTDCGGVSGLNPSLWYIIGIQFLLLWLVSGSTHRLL
methodSummary: FLIPR Fluo-8 calcium assay, Cav1.3 channel inhibition in HEK293 cells
Format: cell-based
cond: first library; ratio of IC50 Cav1.2 to Cav1.3
Hi, to clarify the labels: true (1) covers Selectivity from 2 upward, false (0) covers anything below 2.

Q: Could you verify whether the entry O=C1CC(=O)N(CCc2ccc([N+](=O)[O-])cc2)C(=O)N1CCCCc1ccccc1 [Compound 46] shows Selectivity of no less than 2?
Ans: false (0)

Q: Could you verify whether the entry O=C1CC(=O)N(CCc2ccc([N+](=O)[O-])cc2)C(=O)N1CCc1ccc(Cl)cc1 [Compound 23] shows Selectivity of no less than 2?
Ans: false (0)

Q: Could you verify whether the entry O=C1CC(=O)N(CCc2cccc(F)c2)C(=O)N1CCc1ccc(Cl)cc1 [Compound 19] shows Selectivity of no less than 2?
Ans: false (0)

Q: Could you verify whether the entry O=C1CC(=O)N(CCc2ccc(Cl)c(Cl)c2)C(=O)N1CCCc1ccccc1 [Compound 54] shows Selectivity of no less than 2?
Ans: false (0)

Q: Could you verify whether the entry O=C1CC(=O)N(CCc2ccc3ccccc3c2)C(=O)N1CCc1ccc(Cl)c(Cl)c1 [Compound 63] shows Selectivity of no less than 2?
Ans: false (0)

Q: Could you verify whether the entry O=C1CC(=O)N(CCc2cccc(F)c2)C(=O)N1CCCCc1ccccc1 [Compound 42] shows Selectivity of no less than 2?
Ans: true (1)

Q: Could you verify whether the entry O=C1CC(=O)N(C2Cc3ccccc3C2)C(=O)N1CCc1ccc(Cl)cc1 [Compound 31] shows Selectivity of no less than 2?
Ans: true (1)

Q: Could you verify whether the entry O=C1CC(=O)N(C2CCCc3ccccc32)C(=O)N1CCc1ccc(Cl)cc1 (centres unmarked) [Compound 30] shows Selectivity of no less than 2?
Ans: true (1)
